- Measured target: T1, human GIP receptor (human, UniProt P48546 22-466)
- T1 sequence (looked up): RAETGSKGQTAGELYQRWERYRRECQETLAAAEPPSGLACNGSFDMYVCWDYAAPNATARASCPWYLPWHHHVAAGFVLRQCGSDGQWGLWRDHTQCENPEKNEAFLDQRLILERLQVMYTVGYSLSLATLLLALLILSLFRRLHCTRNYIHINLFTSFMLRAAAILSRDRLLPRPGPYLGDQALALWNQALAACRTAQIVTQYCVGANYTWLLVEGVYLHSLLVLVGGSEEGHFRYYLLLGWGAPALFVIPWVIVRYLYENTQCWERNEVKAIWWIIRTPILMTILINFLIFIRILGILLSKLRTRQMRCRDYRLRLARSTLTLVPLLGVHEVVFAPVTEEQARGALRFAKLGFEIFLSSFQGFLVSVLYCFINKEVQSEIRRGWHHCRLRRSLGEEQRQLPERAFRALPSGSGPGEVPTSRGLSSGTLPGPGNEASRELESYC
- Measurement notes: cell-based or functional assay
Starred links: 1 amine or outer side, 2 acyl side, 3 side chain; linkers in the order of their positions; H or OH if unused. Non-standard residues stand in square brackets, D forms with d. Groups on a side chain read outwards from the residue. No end group written: not given here. *: point of attachment. C18 diacid = O=C(O)CCCCCCCCCCCCCCCCC(=O)*; C16 diacid = O=C(O)CCCCCCCCCCCCCCC(=O)*; γGlu = O=C(O)[C@H](CCC(=O)[*:2])N[*:1]; Glutaryl = O=C(CCCC(=O)[*:2])[*:1]; Nle = CCCC[C@H](N)C(=O)O; AEEA = NCCOCCOCC(=O)O; Aib = CC(C)(N)C(=O)O
Readout label: cAMP antagonism % inhib (CisBio assay) (%)

| Binder | Readout label | Units text | Readout value |
| --- | --- | --- | --- |
| Glutaryl-GTFISDYSIA[Nle]DKIK([AEEA-AEEA-γGlu-C18 diacid])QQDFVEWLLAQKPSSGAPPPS-OH [AT702] | cAMP antagonism % inhib (CisBio assay) | % | 85 |
| EGTFISDYSI[Aib]MDKIK(C16 diacid)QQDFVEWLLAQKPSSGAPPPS-OH [AT665] | cAMP antagonism % inhib (CisBio assay) | % | 88 |
| EGTFISDYSI[Aib]LDKIK([AEEA-AEEA-γGlu-C18 diacid])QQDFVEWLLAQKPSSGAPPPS-OH [AT685] | cAMP antagonism % inhib (CisBio assay) | % | 83 |
| EGTFISDYSI[Aib]LDKIK(C16 diacid)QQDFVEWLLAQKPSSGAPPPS-OH [AT666] | cAMP antagonism % inhib (CisBio assay) | % | 89 |
| EGTFISDYSI[Aib][Nle]DKIK([AEEA-AEEA-γGlu-C18 diacid])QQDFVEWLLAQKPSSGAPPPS-OH [AT686] | cAMP antagonism % inhib (CisBio assay) | % | 82 |

Hello, the source for this data is patent US20230416330A1, in case you need it.
